Organism: Cavia porcellus
experiment: Selectivity factor between CCK-B and CCK-A receptors
Short version: Ratio at least 200 is TRUE, less is FALSE.

// below: answered compounds
compound	class_assignment
CN(C)c1cccc(NC(=O)NC2C(=O)N(CC34C[C@H]5C[C@@H](C3)C[C@@H](C4)C5)c3ccccc3N(c3ccccc3)C2=O)c1 (mixture of isomers)	TRUE
CCOC(=O)c1cccc(NC(=O)NC2C(=O)N(CC34C[C@H]5C[C@@H](C3)C[C@@H](C4)C5)c3ccccc3N(c3ccccc3)C2=O)c1 (mixture of isomers)	TRUE
CC(C)(C)CCN1C(=O)C(NC(=O)Nc2cccc(C#N)c2)C(=O)N(c2ccccc2)c2ccccc21 (configuration not stated)	FALSE
CC(O)C(O)Nc1cccc(NC(=O)NC2C(=O)N(CC34C[C@H]5C[C@@H](C3)C[C@@H](C4)C5)c3ccccc3N(c3ccccc3)C2=O)c1 (mixture of isomers)	TRUE
CN(C)c1cccc(NC(=O)NC2C(=O)N(CCC(C)(C)C)c3ccccc3N(c3ccccc3F)C2=O)c1 (racemic)	FALSE
CC(O)C(O)Nc1cccc(NC(=O)NC2C(=O)N(CC34C[C@H]5C[C@@H](C3)C[C@@H](C4)C5)c3ccccc3N(c3ccccc3)C2=O)c1 (single isomer, unassigned; (+))	TRUE

Decide: is the reported value of Ratio for CC(C)CC(C)N1C(=O)C(NC(=O)Nc2ccccc2)C(=O)N(c2ccccc2)c2ccccc21 (racemic) equal to or greater than 200?
FALSE

Decide: is the reported value of Ratio for CN(C)c1ccc(NC(=O)NC2C(=O)N(CCC3CCCC3)c3ccccc3N(c3ccccc3F)C2=O)cc1 (racemic) equal to or greater than 200?
FALSE

Decide: is the reported value of Ratio for O=C(Nc1ccccc1)NC1C(=O)N(CC2[C@H]3C[C@@H]4C[C@@H](C[C@H]2C4)C3)c2ccccc2N(c2ccccc2)C1=O (mixture of isomers) equal to or greater than 200?
FALSE

Decide: is the reported value of Ratio for O=Cc1cccc(NC(=O)NC2C(=O)N(CC34C[C@H]5C[C@@H](C3)C[C@@H](C4)C5)c3ccccc3N(c3ccccc3)C2=O)c1 (some centres not stated) equal to or greater than 200?
TRUE

Decide: is the reported value of Ratio for CC(C)(C)CCN1C(=O)C(NC(=O)Nc2ccccc2)C(=O)N(c2ccccc2)c2ccccc21 (racemic) equal to or greater than 200?
FALSE

The measured values listed here are drawn from ChEMBL document CHEMBL1133671.
